- Tested on: A549
- RUN DESCRIPTION: Ratio of cytotoxicity of topotecan to cytotoxicity of compound at 0.4 uM in combination with topotecan
- Format: functional, Homo sapiens
MEASURED METRIC: PF50

SMILES RECORD: O=C1NCCn2c(-c3ccc(F)cc3)cc3cccc1c32
TEST TARGET: A549
NUMERIC RESULT: 1.8
--
SMILES RECORD: O=C1NCCn2c(-c3ccc(Cl)cc3)cc3cccc1c32
TEST TARGET: A549
NUMERIC RESULT: 1.8
--
SMILES RECORD: Cc1c(-c2ccc(F)cc2)n2c3c(cccc13)C(=O)NCC2
TEST TARGET: A549
NUMERIC RESULT: 1.1
--
SMILES RECORD: CN(C)Cc1ccc(-c2cc3cccc4c3n2CCNC4=O)cc1
TEST TARGET: A549
NUMERIC RESULT: 1.9
--
SMILES RECORD: O=C1NCCn2c(-c3ccc(F)cc3)c(/C=N/O)c3cccc1c32
TEST TARGET: A549
NUMERIC RESULT: 1.2
--
SMILES RECORD: O=C1NCCn2cc(/C=N/O)c3cccc1c32
TEST TARGET: A549
NUMERIC RESULT: 1.3
--
SMILES RECORD: CN(C)Cc1cccc(-c2cc3cccc4c3n2CCNC4=O)c1
TEST TARGET: A549
NUMERIC RESULT: 1.6
